These measurements were taken from ChEMBL document CHEMBL4311959.

The entries below are paired with their reported pIC50.
# Tested on: THP-1
# test_method_notes: Inhibition of LPS-induced TNFalpha production in human THP1 cells incubated for 1 hr followed by LPS stimulation and measured after 4 hrs by TR-FRET method
# Type: functional, cell-based
The meaning of pIC50 here: minus log10 of the concentration in molar units.

{"columns": ["compound", "pIC50"],
 "data": [
  ["COc1ccc(-c2nn(-c3cccc(NC(=O)c4cccc(C(F)(F)F)c4)c3)cc2-c2ccncc2)cc1Cl", 7.24]
]}

Here's the next entry for you.
Entry C[S+]([O-])c1ccc(-c2nc(-c3ccc(F)cc3)c(-c3ccncc3)[nH]2)cc1 (configuration not stated) [SB-203580] has what pIC50? 7.70

====

# test_method_notes: AUCinfinity in Sprague-Dawley rat at 10 mg/kg, iv measured for each 30 mins by LC-MS/MS analysis
# Type: ADME, organism-based
# Design: dose 10 mg/kg, time infinity, route intravenous
# assay_conditions: in vivo
metric_name: AUC(0-inf) (ng·h/mL)
Write the answer as a number in ng·h/mL, unit excluded.

Entry COc1ccc(-c2nn(-c3cccc(NC(=O)c4cccc(C(F)(F)F)c4)c3)cc2-c2ccncc2)cc1Cl has what AUC(0-inf)? 1460

====

# test_method_notes: AUClast in Sprague-Dawley rat at 10 mg/kg, po measured for each 30 mins by LC-MS/MS analysis
# Type: ADME, organism-based
# Parameters: dose 10 mg/kg, route oral, time 0 - last
# assay_conditions: in vivo
metric_name: AUC(0-t) at 0.5 h (µg·h/mL)
Write the answer as a number in µg·h/mL, unit excluded.

Entry COc1ccc(-c2nn(-c3cccc(NC(=O)c4cccc(C(F)(F)F)c4)c3)cc2-c2ccncc2)cc1Cl has what AUC(0-t) at 0.5 h? 0.165

====

# assayed_target: Voltage-gated inwardly rectifying potassium channel KCNH2 (Homo sapiens, UniProt Q12809)
# Sequence (Q12809 whole entry): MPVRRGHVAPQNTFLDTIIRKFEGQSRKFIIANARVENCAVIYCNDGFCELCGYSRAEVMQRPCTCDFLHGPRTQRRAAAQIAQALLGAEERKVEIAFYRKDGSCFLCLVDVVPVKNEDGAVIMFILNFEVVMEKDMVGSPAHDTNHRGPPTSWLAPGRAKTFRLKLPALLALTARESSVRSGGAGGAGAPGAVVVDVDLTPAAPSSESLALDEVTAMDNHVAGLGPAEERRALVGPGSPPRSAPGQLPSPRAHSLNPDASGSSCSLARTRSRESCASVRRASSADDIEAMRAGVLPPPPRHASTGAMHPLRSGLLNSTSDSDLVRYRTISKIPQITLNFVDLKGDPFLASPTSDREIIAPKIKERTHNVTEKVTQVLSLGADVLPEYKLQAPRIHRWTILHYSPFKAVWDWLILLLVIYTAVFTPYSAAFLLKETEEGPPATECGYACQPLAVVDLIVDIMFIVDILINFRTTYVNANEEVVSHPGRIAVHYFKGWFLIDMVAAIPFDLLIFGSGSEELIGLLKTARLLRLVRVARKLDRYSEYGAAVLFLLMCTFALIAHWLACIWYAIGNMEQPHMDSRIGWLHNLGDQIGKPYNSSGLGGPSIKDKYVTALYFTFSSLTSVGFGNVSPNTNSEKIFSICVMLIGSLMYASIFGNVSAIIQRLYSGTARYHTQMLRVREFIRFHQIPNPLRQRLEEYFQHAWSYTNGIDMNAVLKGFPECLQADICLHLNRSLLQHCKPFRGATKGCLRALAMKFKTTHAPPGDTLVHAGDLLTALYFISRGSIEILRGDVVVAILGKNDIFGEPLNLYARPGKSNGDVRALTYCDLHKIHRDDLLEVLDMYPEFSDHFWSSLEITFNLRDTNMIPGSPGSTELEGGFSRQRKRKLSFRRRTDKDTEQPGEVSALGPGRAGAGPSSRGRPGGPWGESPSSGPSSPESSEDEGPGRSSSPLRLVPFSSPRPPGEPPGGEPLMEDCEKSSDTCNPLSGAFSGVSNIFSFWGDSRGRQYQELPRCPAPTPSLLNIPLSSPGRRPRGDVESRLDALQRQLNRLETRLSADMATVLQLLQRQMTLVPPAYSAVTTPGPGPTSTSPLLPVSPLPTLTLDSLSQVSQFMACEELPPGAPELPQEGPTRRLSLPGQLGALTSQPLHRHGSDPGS
metric_name: IC50 (µM)
Write the answer as a number in µM, unit excluded.

Lab note: need IC50 with Voltage-gated inwardly rectifying potassium channel KCNH2 (Homo sapiens, UniProt Q12809) for entry COc1ccc(-c2nn(-c3cccc(NC(=O)c4cccc(C(F)(F)F)c4)c3)cc2-c2ccncc2)cc1Cl , please look it up. 13.1

====

# test_method_notes: Stability in human plasma assessed as remaining compound at 10 uM incubated for 120 mins by LC-MS analysis
# Assay type: ADME, cell-free
# assay_conditions: read-out: Stability
metric_name: remaining at 2 h, 10 µM
Reply with the number and its unit after it.

{"columns": ["compound_smiles", "remaining at 2 h, 10 µM"],
 "data": [
  ["COc1ccc(-c2nn(-c3cccc(NC(=O)c4cccc(C(F)(F)F)c4)c3)cc2-c2ccncc2)cc1Cl", "98.4%"]
]}

Entry CCN(CC)CCOC(=O)c1ccc(N)cc1 has what remaining at 2 h, 10 µM? 0.2%

And the next one, COc1ccc([C@@H]2Sc3ccccc3N(CCN(C)C)C(=O)[C@@H]2OC(C)=O)cc1 ? 89.3%

====

# test_method_notes: Tmax in Sprague-Dawley rat at 10 mg/kg, po measured for each 30 mins by LC-MS/MS analysis
# Type: ADME, organism-based
# assay_conditions: in vivo
metric_name: Tmax (h)
Write the answer as a number in h, unit excluded.

Entry COc1ccc(-c2nn(-c3cccc(NC(=O)c4cccc(C(F)(F)F)c4)c3)cc2-c2ccncc2)cc1Cl has what Tmax? 1.2
